Where these numbers come from: paper PMC3663987

target: P-glycoprotein (Pgp, ABCB1) (Homo sapiens); experiment: Pgp-Glo ATPase stimulation assay, recombinant human Pgp membranes
Sequence (P08183 whole entry): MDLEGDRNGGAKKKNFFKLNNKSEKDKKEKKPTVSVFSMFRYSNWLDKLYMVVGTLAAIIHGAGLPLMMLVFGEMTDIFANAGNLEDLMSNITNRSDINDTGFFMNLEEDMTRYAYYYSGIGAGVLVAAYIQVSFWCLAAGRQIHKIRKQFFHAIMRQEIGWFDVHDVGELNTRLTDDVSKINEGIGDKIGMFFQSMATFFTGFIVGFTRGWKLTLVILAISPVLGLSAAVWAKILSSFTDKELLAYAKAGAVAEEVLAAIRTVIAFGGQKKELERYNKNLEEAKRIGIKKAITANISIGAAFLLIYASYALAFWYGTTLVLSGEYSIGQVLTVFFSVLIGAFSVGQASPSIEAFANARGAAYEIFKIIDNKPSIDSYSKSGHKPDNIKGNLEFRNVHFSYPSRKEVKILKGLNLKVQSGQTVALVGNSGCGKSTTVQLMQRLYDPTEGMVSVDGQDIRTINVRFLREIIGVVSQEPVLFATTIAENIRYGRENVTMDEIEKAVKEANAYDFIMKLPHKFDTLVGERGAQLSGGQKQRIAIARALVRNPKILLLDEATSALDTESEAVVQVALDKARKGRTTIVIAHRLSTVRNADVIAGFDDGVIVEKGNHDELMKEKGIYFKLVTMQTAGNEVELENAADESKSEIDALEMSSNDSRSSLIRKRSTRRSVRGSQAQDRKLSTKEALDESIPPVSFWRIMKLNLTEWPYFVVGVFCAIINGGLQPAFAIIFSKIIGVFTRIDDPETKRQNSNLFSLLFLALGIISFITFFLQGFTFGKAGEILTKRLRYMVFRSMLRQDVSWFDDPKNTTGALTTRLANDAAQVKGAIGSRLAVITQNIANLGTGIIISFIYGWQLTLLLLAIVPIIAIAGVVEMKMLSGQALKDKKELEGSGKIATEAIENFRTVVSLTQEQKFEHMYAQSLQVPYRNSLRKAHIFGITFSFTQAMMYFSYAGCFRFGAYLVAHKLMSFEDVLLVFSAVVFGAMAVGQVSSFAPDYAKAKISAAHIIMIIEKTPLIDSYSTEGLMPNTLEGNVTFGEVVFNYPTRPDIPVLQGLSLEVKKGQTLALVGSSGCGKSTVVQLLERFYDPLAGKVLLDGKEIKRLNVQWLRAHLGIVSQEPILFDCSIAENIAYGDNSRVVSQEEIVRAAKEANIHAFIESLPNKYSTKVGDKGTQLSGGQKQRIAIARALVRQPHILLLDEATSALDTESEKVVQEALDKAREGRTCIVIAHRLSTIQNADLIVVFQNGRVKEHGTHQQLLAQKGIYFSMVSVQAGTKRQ
PARAMETER: EC50 (µM)
Dear colleague, please return just the value in µM, with no unit written.

Task: Look up EC50 for this compound: O=C(Cn1ccnc1[N+](=O)[O-])NCc1ccccc1
Result: 277
